Give measured Kv7.2/7.3 ΔV1/2 for each item. Keep answers brief.
Target system: heteromeric KV7.2/KV7.3 channels (KCNQ2, KCNQ3) (Homo sapiens, UniProt O43525+O43526)
Construct: expressed in transfected cells; host or cells: CHO-K1
Assay overview: Automated patch-clamp (Sophion Qube 384) potency assay against KV7.2/KV7.3 channels
Assay type: cell-based
Details: CHO-K1/Kv7.2/Kv7.3 cells; maximal shift in the Vhalf from the top of the curve
I'd appreciate it if you wrote the number followed by its unit.

# Kv7.2/7.3 ΔV1/2 (compound: O=C(NCCC1(C(F)(F)F)CC1)NCc1ccnc(NCC(F)(F)F)c1 [Compound 16] ) is 20.12 mV

Value of measured Kv7.2/7.3 ΔV1/2 for the entry O=C(NCCC1(C(F)(F)F)CC1)N[C@@H](CO)c1ccnc(OCC(F)(F)F)c1 [Compound 112] : 26.53 mV

Field Kv7.2/7.3 ΔV1/2 (entry O=C(NCc1ccnc(OCC(F)(F)F)c1)N[C@@H]1CCc2c(Cl)cccc21 [Compound 121] ) reads 38.54 mV

Value of Kv7.2/7.3 ΔV1/2 reported for the compound O=C(NCc1ccnc(OCC(F)(F)F)c1)N[C@H]1CCOc2cccc(F)c21 [Compound 189] is 32.95 mV

// Kv7.2/7.3 ΔV1/2 lookup, compound = O=C(NCc1ccnc(OCC(F)(F)F)c1)NC1(C(F)(F)F)COC1 [Compound 218] , result: 21.41 mV

Value of measured Kv7.2/7.3 ΔV1/2 for the entry O=C(NCc1ccnc(OCC(F)(F)F)c1)N[C@H]1COc2ccccc2C1 [Compound 187] : 21.99 mV

Field Kv7.2/7.3 ΔV1/2 (entry O=C(NCCC1(C(F)(F)F)CC1)NCc1ccnc(OCC(F)(F)F)c1F [Compound 90] ) reads 20.86 mV

Looking up COc1ccc2c(c1)CCC2NC(=O)NCc1ccnc(OCC(F)(F)F)c1 (centres unmarked) [Compound 122] , I see its Kv7.2/7.3 ΔV1/2 listed as 26.22 mV
